Listing: pest or weed control at 125 g/ha of selected molecules
# System: Kochia (Kochia scoparia)
# Protocol Text: Test A preemergence
# Type: in vivo
# Assay Setup: Bassia scoparia, pre-emergence, 240 h, 125 g ai/ha, preemergence; 0 to 100 scale where 0 is no effect and 100 is complete control; approx. 10 d; read-out: Kochia plant response rating
Attribute Measured: pest or weed control at 125 g/ha (%)

>>> df
                                   molecule                attribute_measured  quantitative_readout
0  COCOCc1ccccc1NC(=O)[C@H]1C(=O)N(C)C[C@@H]1c1cccc(C(F)(F)F)c1 (racemic) [Compound 1161]  pest or weed control at 125 g/ha                     0
1  C/C=C/N1C[C@@H](c2cccc(C(F)(F)F)c2)[C@H](C(=O)Nc2ccccc2F)C1=O (racemic) [Compound 1094]  pest or weed control at 125 g/ha                     0
2  CN1C[C@H](c2cc(C(F)F)cs2)[C@@H](C(=O)Nc2cnccc2C(F)(F)F)C1=O [Compound 1091]  pest or weed control at 125 g/ha                    40
3  CCc1cc([C@H]2CN(C)C(=O)[C@@H]2C(=O)Nc2cccc(F)c2F)cs1 [Compound 1157]  pest or weed control at 125 g/ha                    90
4  CN1C[C@H](c2cscn2)[C@@H](C(=O)Nc2cccc(F)c2F)C1=O [Compound 1113]  pest or weed control at 125 g/ha                     0
5  CN1CC(c2cccc(C(F)(F)F)c2)C(C(=O)Nc2ccccc2C(C)(C)O)C1=O (centres unmarked) [Compound 1146]  pest or weed control at 125 g/ha                     0
6  O=C1NC[C@H](c2nccs2)[C@H]1C(=O)Nc1ccccc1F [Compound 1181]  pest or weed control at 125 g/ha                     0
7  CN1CC[C@H](c2cccc(C(F)(F)F)c2)[C@@H](C(=O)Nc2cccc(F)c2Cl)C1=O [Compound 1158]  pest or weed control at 125 g/ha                    30

----------
# Test system: ryegrass, Italian (Italian ryegrass, Lolium multiflorum)
# Protocol Text: Test A preemergence
# Type: in vivo
# Assay Setup: Lolium multiflorum, pre-emergence, 240 h, 125 g ai/ha, preemergence; 0 to 100 scale where 0 is no effect and 100 is complete control; read-out: Ryegrass, Italian plant response rating
Attribute Measured: pest or weed control at 125 g/ha (%)

In [3]: df
Out[3]:
                                    molecule  result_units  quantitative_readout
 0  CSc1ccccc1NC(=O)[C@H]1C(=O)N(C)C[C@@H]1c1cccc(OC(F)(F)C(F)F)c1 [Compound 862]             %                     0
 1  Cc1cc(C)cc([C@H]2CN(C)C(=O)[C@@H]2C(=O)Nc2ccccc2C(F)(F)F)c1 [Compound 912]             %                    40
 2  O=C1NC[C@H](c2ccc3c(c2)CCCO3)[C@H]1C(=O)Nc1ccccc1F [Compound 885]             %                     0
 3  CC(C)c1cccc([C@H]2CN(C)C(=O)[C@@H]2C(=O)Nc2ccc(F)cc2F)c1 [Compound 821]             %                    80
 4  COc1c(F)ccc([C@H]2CN(C)C(=O)[C@@H]2C(=O)Nc2ccc(F)cc2F)c1Cl [Compound 894]             %                    50
 5  CCOc1ccc([C@H]2CNC(=O)[C@@H]2C(=O)Nc2ccccc2F)cc1 [Compound 906]             %                     0
 6  O=C1NC[C@H](c2cncc(C(F)(F)F)c2)[C@H]1C(=O)Nc1ccccc1F [Compound 887]             %                     0
 7  COc1cc([C@H]2CN(C)C(=O)[C@@H]2C(=O)Nc2ccccc2SC)cc(C(F)(F)F)c1 [Compound 857]             %                    40
 8  CCOc1ccc([C@H]2CNC(=O)[C@@H]2C(=O)Nc2cccc(F)c2F)cc1 [Compound 907]             %                     0
 9  Cc1cc(C)cc([C@H]2CN(C)C(=O)[C@@H]2C(=O)Nc2ccccc2F)c1 [Compound 910]             %                    50
10  COc1c(F)ccc([C@H]2CNC(=O)[C@@H]2C(=O)Nc2ccccc2F)c1Cl [Compound 881]             %                    30
11  Cc1c(F)cccc1NC(=O)[C@H]1C(=O)N(C)C[C@@H]1c1cc(F)c(F)c(F)c1 [Compound 867]             %                    60
12  Cc1c(F)cccc1NC(=O)[C@H]1C(=O)NC[C@@H]1c1cccc(C(F)(F)F)c1 [Compound 826]             %                    70

----------
# Tested on: Kochia (Kochia scoparia)
# Protocol Text: Test A preemergence
# Type: in vivo
# Assay Setup: Bassia scoparia, pre-emergence, 240 h, 125 g ai/ha, Preemergence, visual injury rating after approximately 10 d; read-out: Kochia plant response rating (0 to 100 scale, 0 is no effect, 100 is complete control)
Attribute Measured: pest or weed control at 125 g/ha

>>> df
                                   compound             system_tested                attribute_measured  result
0  CSc1ccccc1NC(=O)[C@H]1C(=O)N(C)C[C@@H]1c1ccc(C)c(F)c1  Kochia (Kochia scoparia)  pest or weed control at 125 g/ha     90%
1  CSc1ccccc1NC(=O)[C@H]1C(=O)N(C)CC[C@@H]1c1ccc(OC(F)(F)F)cc1  Kochia (Kochia scoparia)  pest or weed control at 125 g/ha      0%
2  O=C(Nc1cccc(F)c1F)[C@H]1C(=O)N(O)CC[C@@H]1c1ccccc1  Kochia (Kochia scoparia)  pest or weed control at 125 g/ha      0%
3  CCc1cc(CC)cc([C@H]2CNC(=O)[C@@H]2C(=O)Nc2ccccc2C(F)(F)F)c1  Kochia (Kochia scoparia)  pest or weed control at 125 g/ha      0%
4  CN1CC[C@H](c2ccc(OC(F)(F)F)cc2)[C@@H](C(=O)Nc2cccc(Cl)c2F)C1=O  Kochia (Kochia scoparia)  pest or weed control at 125 g/ha      0%
5  Cc1ccc([C@H]2CN(C)C(=O)[C@@H]2C(=O)Nc2ccccc2[S+](C)[O-])cc1Cl (single isomer, unassigned)  Kochia (Kochia scoparia)  pest or weed control at 125 g/ha      0%
6  Cc1ccc([C@H]2CN(C)C(=O)[C@@H]2C(=O)Nc2cccc(F)c2C)cc1F  Kochia (Kochia scoparia)  pest or weed control at 125 g/ha     50%
7  COc1cc(OC)cc([C@H]2CN(C)C(=O)[C@@H]2C(=O)Nc2ccccc2F)c1  Kochia (Kochia scoparia)  pest or weed control at 125 g/ha      0%
8  CN1C[C@H](c2cc(F)cc(F)c2)[C@@H](C(=O)Nc2ccc(O)cc2F)C1=O  Kochia (Kochia scoparia)  pest or weed control at 125 g/ha      0%

----------
Listing: pest or weed control at 125 g/ha of selected compounds
# Test system: barnyardgrass (Echinochloa crus-galli)
# Protocol Text: Test A preemergence
# Format: in vivo
# Assay Setup: Echinochloa crus-galli, pre-emergence, 240 h, 125 g ai/ha, preemergence; 0 to 100 scale where 0 is no effect and 100 is complete control; approx. 10 d; read-out: Barnyardgrass plant response rating
Attribute Measured: pest or weed control at 125 g/ha

In [3]: df
Out[3]:
                                   compound                attribute_measured  result
0  CN1C[C@H](c2cscn2)[C@@H](C(=O)Nc2cccc(F)c2F)C1=O [Compound 1113]  pest or weed control at 125 g/ha      0%
1  CN1C[C@H](c2csc3c2CCC3)[C@@H](C(=O)Nc2ccccc2S(C)(=O)=O)C1=O [Compound 1082]  pest or weed control at 125 g/ha      0%
2  COCOCc1ccccc1NC(=O)[C@H]1C(=O)N(C)C[C@@H]1c1cccc(C(F)(F)F)c1 (racemic) [Compound 1161]  pest or weed control at 125 g/ha      0%
3  CN1C[C@H](c2cccc(C(F)(F)F)c2)[C@@H](C(=O)Nc2ccccc2CCO)C1=O (racemic) [Compound 1162]  pest or weed control at 125 g/ha     90%
4  CN1CC[C@H](c2cccc(C(F)(F)F)c2)[C@@H](C(=O)Nc2cccc(F)c2Cl)C1=O [Compound 1158]  pest or weed control at 125 g/ha     90%
5  Cc1c(F)cccc1NC(=O)[C@H]1C(=O)N(C)C[C@@H]1c1cc(F)cc(F)c1 [Compound 1140]  pest or weed control at 125 g/ha     90%
6  CCc1cc([C@H]2CN(C)C(=O)[C@@H]2C(=O)Nc2cccc(F)c2F)cs1 [Compound 1157]  pest or weed control at 125 g/ha     90%
7  Cc1ccc([C@H]2CNC(=O)[C@]2(Br)C(=O)Nc2cccc(F)c2F)cc1F (racemic) [Compound 1073]  pest or weed control at 125 g/ha    100%
8  CN1C[C@H](c2csc3ccccc23)[C@@H](C(=O)Nc2ccccc2F)C1=O [Compound 1114]  pest or weed control at 125 g/ha     90%

Reference source: patent US12077503B2
